For each of the binders below, state its koff.
Target: T1, rat alpha CGRP (SEQ ID NO: 82) (rat)
T1 construct: also called rat αCGRP; rat α-CGRP
T1 peptide: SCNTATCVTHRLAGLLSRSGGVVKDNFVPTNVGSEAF
Test: SPR, 37 C, mutein captured, CGRP analyte
Write it as a number; the unit s⁻¹ goes unstated.

For lipocalin mutein SEQ ID NO: 23 (designed binder, biotinylated by NHS chemistry for capture in SPR) QDSTSDLIPAPPLSKVPLQQNFQDNQFHGKWYVVGWAGNTLLREDKDPIKMQAKIYELKEDRSYNVTWVYFADKKCNYHIETFVPGSQPGEFTLGLIKSYPGETPILVRVVSTNYNQHAMVFFKGVNQNREIFEIILYGRTKELTNELKENFIRFSKSLGLPENHIVFPVPIDQCIDGSAWSHPQFEK the binder record lists koff as 1.3e-05

For lipocalin mutein SEQ ID NO: 8 (designed binder, biotinylated by NHS chemistry for capture in SPR) QDSTSDLIPAPPLSKVPLQQNFQDNQFHGKWYVVGWAGNTLRREDKNPTKMQATIYELKEDKSYNVTWVYFSEKKCNYHIETSVPGSQPGEFTLGTIKSYPGETSILVRVVSTNYNQHAMVFFKGVSQNREIFEITLYGRTKELTSELKENFIRFSKSLGLPENHIVFPVPIDQCIDGSAWSHPQFEK the binder record lists koff as 0.000837

For lipocalin mutein SEQ ID NO: 22 (designed binder, biotinylated by NHS chemistry for capture in SPR) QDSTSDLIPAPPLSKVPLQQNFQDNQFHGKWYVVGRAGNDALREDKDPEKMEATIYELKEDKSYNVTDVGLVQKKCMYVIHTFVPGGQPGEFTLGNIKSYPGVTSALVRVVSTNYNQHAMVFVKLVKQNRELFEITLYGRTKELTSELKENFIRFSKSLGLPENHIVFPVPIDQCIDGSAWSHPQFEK the binder record lists koff as 3.05e-05
